MEASURED_ON: Endothelin receptor, ET-A/ET-B (Homo sapiens) (UniProt P24530+P25101)
Sequence (P24530 whole entry, looked up): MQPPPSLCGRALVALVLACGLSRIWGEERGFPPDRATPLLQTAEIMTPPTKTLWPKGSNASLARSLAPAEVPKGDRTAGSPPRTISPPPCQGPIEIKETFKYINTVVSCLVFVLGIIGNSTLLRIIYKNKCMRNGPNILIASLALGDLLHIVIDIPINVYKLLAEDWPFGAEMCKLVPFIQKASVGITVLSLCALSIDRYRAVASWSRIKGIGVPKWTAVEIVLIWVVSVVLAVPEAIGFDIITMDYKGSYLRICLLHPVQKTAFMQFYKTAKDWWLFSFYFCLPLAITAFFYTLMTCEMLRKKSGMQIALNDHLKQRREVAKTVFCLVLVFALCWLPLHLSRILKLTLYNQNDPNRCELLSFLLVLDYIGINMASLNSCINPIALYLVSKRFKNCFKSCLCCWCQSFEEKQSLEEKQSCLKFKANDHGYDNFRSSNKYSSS
Sequence (P25101 whole entry, looked up): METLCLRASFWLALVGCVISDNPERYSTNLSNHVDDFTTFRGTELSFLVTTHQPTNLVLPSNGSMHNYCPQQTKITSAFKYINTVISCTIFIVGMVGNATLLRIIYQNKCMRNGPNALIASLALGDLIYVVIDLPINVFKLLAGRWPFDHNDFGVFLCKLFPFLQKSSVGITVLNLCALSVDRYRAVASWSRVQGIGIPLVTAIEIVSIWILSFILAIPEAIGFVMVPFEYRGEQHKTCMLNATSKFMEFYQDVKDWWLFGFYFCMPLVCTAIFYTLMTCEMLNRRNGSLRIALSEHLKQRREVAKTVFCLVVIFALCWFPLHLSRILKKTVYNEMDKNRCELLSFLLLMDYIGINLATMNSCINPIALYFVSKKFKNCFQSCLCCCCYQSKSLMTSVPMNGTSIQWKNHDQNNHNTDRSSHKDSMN
METHOD: Ratio of binding affinity towards hETA to hETB
Format: protein assay
Reported Ratio values follow for various compounds

{"COMPOUND": "CCOc1ccc([C@H]2[C@H](C(=O)O)[C@@H](c3ccc4c(c3)OCO4)CN2CC(=O)Nc2c(CC)cccc2CC)cc1 (stereo in doubt; 37)", "Ratio": 280}
{"COMPOUND": "CCc1cccc(CC)c1NC(=O)CN1C[C@H](c2ccc3c(c2)OCO3)[C@@H](C(=O)O)[C@@H]1c1ccc(CCOC)cc1", "Ratio": 3000}
{"COMPOUND": "CCCOc1ccc([C@H]2[C@H](C(=O)O)[C@@H](c3ccc4c(c3)OCO4)CN2CC(=O)Nc2c(CC)cccc2CC)cc1 (stereo in doubt; 38)", "Ratio": 1300}
{"COMPOUND": "COc1ccc([C@H]2[C@H](C(=O)O)[C@@H](c3ccc4c(c3)OCO4)CN2CC(=O)Nc2ccc(C)c(C)c2)cc1", "Ratio": 0.06}
